- TARGET_OR_TEST_SYSTEM: Bromodomain testis-specific protein (Homo sapiens)
- ASSAY_COMMENT: Displacement of tetra-acetylated histone H4 peptide (1-21) from BRDT BD1 (unknown origin) incubated for 30 mins followed by further incubation with tetra-acetylated histone H4 peptide (1-21) for 30 mins by Alphascreen assay
ASSAY_READOUT: IC50
Enter the number, and then the unit.

# lookup: COc1ccccc1S(=O)(=O)Nc1ccc2c3c(cc(-n4cnc(C)c4)nc13)C(=O)N2C on Bromodomain testis-specific protein (Homo sapiens), IC50 = 357 nM

---

- ASSAY_COMMENT: Metabolic stability in monkey liver microsomes assessed as half life measured upto 60 mins by LC/MS-MS analysis
- Type: ADME, Macaca mulatta, Microsome
- CONDITION: rhesus monkey
ASSAY_READOUT: half-life (min)
Numeric only. Scale: min

The reported value for COc1ccccc1S(=O)(=O)Nc1ccc2c3c(cc(-n4cnc(C)c4)nc13)C(=O)N2C in terms of half-life is 10.3
